The reported measurements were obtained from paper PMC5484485.

- tested target: human GPR54 (Homo sapiens, UniProt Q969F8)
- Sequence (Q969F8 whole entry): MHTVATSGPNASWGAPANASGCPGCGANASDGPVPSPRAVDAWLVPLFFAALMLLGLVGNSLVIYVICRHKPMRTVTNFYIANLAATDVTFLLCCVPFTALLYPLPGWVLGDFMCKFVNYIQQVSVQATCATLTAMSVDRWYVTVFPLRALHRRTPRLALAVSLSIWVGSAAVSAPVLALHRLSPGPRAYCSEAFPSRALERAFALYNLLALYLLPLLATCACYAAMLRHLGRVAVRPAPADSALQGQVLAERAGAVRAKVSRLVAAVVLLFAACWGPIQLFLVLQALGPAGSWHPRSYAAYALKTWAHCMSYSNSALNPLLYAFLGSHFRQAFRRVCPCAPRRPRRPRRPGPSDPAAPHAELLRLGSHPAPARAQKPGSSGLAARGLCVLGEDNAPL
- measurement description: Flow cytometric calcium flux assay, response to peptide alone (agonist / intrinsic activity)
- Format: cell-based
- Design: host or cells: rat hematopoietic CHEM1 cells expressing endogenous Galpha15
- assay conditions: CHEM1-GPR54 cells in suspension, Fluo-3 AM, flow cytometry, 10^-13 to 10^-5 M, n = 3
- Text: […]
pEC50: −log10 of the molar value. Ends that are not written are not given here.
measured endpoint: pEC50

substance="YNWNVFGLRY-NH2 [cKP10, reference compound]" tested_target="human GPR54 (Homo sapiens, UniProt Q969F8)" measured_endpoint=pEC50 test_value=8.10
